List of activation at 3.7037 µM values.
Subject of test: Ae. aegypti NPYLR7 (Aedes aegypti)
Protocol notes: In vitro calcium (GCaMP6s) FLIPR assay in HEK293T cells transfected with NPYLR7
Assay type: cell-based
Conditions used: HEK-293T, 3.7037 uM; single replicate, normalised response
# value in %; strip the unit string

Please review the following examples before continuing.
| Test smiles | Measure name | Observed result |
| --- | --- | --- |
| COc1ccc(COc2ccc3c(C)nc(NC(=N)N)nc3c2)cc1OC | activation at 3.7037 µM | 96.7 |
| Cc1nc(NC(=N)N)nc2cc(OCc3ccc(S(C)(=O)=O)cc3)ccc12 | activation at 3.7037 µM | 77.6 |
| CCCOc1ccc2c(C)nc(NC(=N)N)nc2c1 | activation at 3.7037 µM | 66.7 |
| COc1ccc(COc2ccc3c(C)nc(NC(=N)N)nc3c2)cn1 | activation at 3.7037 µM | 83.8 |

Consider now this further compound.
In: Give the reported activation at 3.7037 µM for COc1ccc(OCc2ccc3c(C)nc(NC(=N)N)nc3c2)cc1 (system: Ae. aegypti NPYLR7 (Aedes aegypti)).
Out: 89.7

###

Subject of test: Ae. aegypti NPYLR7 (Aedes aegypti, UniProt U5N1H5)
Sequence (U5N1H5 entry or part of it): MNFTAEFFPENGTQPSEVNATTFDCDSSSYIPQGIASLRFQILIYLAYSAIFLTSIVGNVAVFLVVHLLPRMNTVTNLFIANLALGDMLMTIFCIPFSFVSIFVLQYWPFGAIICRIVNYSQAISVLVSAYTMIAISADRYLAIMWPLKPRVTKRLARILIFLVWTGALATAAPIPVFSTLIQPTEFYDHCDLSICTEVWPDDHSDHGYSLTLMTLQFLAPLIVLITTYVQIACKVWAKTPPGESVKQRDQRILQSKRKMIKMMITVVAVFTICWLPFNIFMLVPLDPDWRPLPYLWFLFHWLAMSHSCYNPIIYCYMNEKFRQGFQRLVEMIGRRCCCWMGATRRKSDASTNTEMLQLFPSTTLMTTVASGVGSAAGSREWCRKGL
Protocol notes: In vitro calcium (GCaMP6s) FLIPR assay in HEK293T cells transfected with NPYLR7
Type: cell-based
Conditions used: HEK-293T, 3.7037 uM; single replicate, normalised response
activation at 3.7037 µM for assorted compounds
Provide the reading as a plain figure in %.

| Compound | Measure name | Units | Observed result |
| --- | --- | --- | --- |
| Cc1nc(NC(=N)N)nc2cc(OCC3CCCCC3)ccc12 | activation at 3.7037 µM | % | 42.2 |
| Cc1nc(NC(=N)N)nc2cc(OCC3CC3)ccc12 | activation at 3.7037 µM | % | 50.2 |

In: What is its activation at 3.7037 µM for Ae. aegypti NPYLR7 (Aedes aegypti, UniProt U5N1H5)? Entry: Cc1nc(NC(=N)N)nc2cc(OCC3CCOC3)ccc12 (stereo not drawn)
Out: 42

###

Subject of test: Ae. aegypti NPYLR7 (Aedes aegypti, UniProt U5N1H5)
Protocol notes: In vitro calcium (GCaMP6s) FLIPR assay in HEK293T cells transfected with NPYLR7
Format: cell-based
Conditions used: HEK-293T, 100 uM; single replicate of the dose-response curve, normalised response
Grouping by measured activation at 100 µM is done with the following cut points: bin 0 (below 70%), bin 1 (70% to below 90%), bin 2 (90% or more)

| Compound | Subject of test | Classification |
| --- | --- | --- |
| Cc1nc(NC(=N)N)nc2cc(OCC3CC3)ccc12 | Ae. aegypti NPYLR7 (Aedes aegypti, UniProt U5N1H5) | bin 0 |

In: # bin lookup: classify Cc1nc(NC(=N)N)nc2cc(OCC3CCCOC3)ccc12 (stereo not shown) by its activation at 100 µM
Out: bin 0

In: Band assignment needed for Cc1nc(NC(=N)N)nc2cc(OCC(F)(F)F)ccc12 please.
Out: bin 1

In: Lab note: sort CCCOc1ccc2c(C)nc(NC(=N)N)nc2c1 into the matching activation at 100 µM band.
Out: bin 2

In: Which class does CCOc1cc2c(C)nc(NC(=N)N)nc2cc1OCc1ccccc1 fall in?
Out: bin 1

In: For CCOc1ccc2c(C)nc(NC(=N)N)nc2c1 , which activation at 100 µM bin applies?
Out: bin 0

In: Hi there! Could you help me figure out the category for COc1ccc(COc2ccc3c(C)nc(NC(=N)N)nc3c2)cc1OC please?
Out: bin 0

In: Category of CCOc1ccc(COc2ccc3c(C)nc(NC(=N)N)nc3c2)cc1 :
Out: bin 2

In: Given COc1ccc(OCc2ccc3c(C)nc(NC(=N)N)nc3c2)cc1 , name the class its activation at 100 µM places it in.
Out: bin 2

// data source = paper PMC11212260
